Origin of values: patent US20250122223A1

experiment: Pharmacokinetic (PK) parameters in mouse; format: in vivo, BALB/c mouse; conditions: blood; BALB/c mouse IV 1 mg/kg
readoutType: half-life (h)

{"compound": "C[C@H]1CN[C@H](c2ccc(-n3c(Cl)cc4c(=O)n(CC5(O)CCN(C(=O)c6ccc(F)cc6)CC5)cnc43)cc2)CO1", "readoutType": "half-life", "readoutNumber": 2.09}
{"compound": "C[C@H]1CN[C@H](c2ccc(-n3c(Cl)cc4c(=O)n(CC5(O)CCN(C(=O)[C@]6(C)C[C@H]6C(F)(F)F)CC5)cnc43)cc2)CO1 (single isomer, unassigned)", "readoutType": "half-life", "readoutNumber": 3.5}

----------
molecular target: USP7 (Homo sapiens (Human)); experiment: USP7 fluorescence polarisation (FP) assay with ubiquitin-Lys-TAMRA substrate; format: biochemical; conditions: average of at least duplicate experiments; read-out: Biochemical: USP7 IC50
pIC50: −log10 of the molar value.
# cutoff 7 applies to pIC50; >= gives y, < gives n

{"molecule": "CC1(C(=O)N2CCC(O)(Cn3cnc4c(cc(Cl)n4-c4ccc([C@H]5COCCN5)cc4)c3=O)CC2)CC1C(F)(F)F (stereo partly drawn)", "assayedTarget": "USP7 (Homo sapiens (Human))", "qualitativeLabel": "y"}
{"molecule": "O=C(C[C@H](c1ccccc1)C(F)F)N1CCC(O)(Cn2cnc3c(cc(Cl)n3-c3ccc([C@H]4COCCN4)cc3)c2=O)CC1 (single isomer, unassigned)", "assayedTarget": "USP7 (Homo sapiens (Human))", "qualitativeLabel": "y"}
{"molecule": "CC1(C(=O)N2CCC(O)(Cn3cnc4c(cc(Cl)n4-c4cccc(N5CCOCC5)c4)c3=O)CC2)CC1 [Comparative Example, reference compound]", "assayedTarget": "USP7 (Homo sapiens (Human))", "qualitativeLabel": "n"}
{"molecule": "Cc1cc(-n2c(Cl)cc3c(=O)n(CC4(O)CCN(C(=O)C[C@H](c5ccccc5)C(F)(F)F)CC4)cnc32)ccc1[C@H]1CO[C@H](C)CN1", "assayedTarget": "USP7 (Homo sapiens (Human))", "qualitativeLabel": "y"}
{"molecule": "C[C@H]1CN[C@H](c2ccc(-n3c(Cl)cc4c(=O)n(CC5(O)CCN(C(=O)[C@]6(C)C[C@H]6C(F)(F)F)CC5)cnc43)cc2)CO1 (single isomer, unassigned)", "assayedTarget": "USP7 (Homo sapiens (Human))", "qualitativeLabel": "y"}
{"molecule": "Cc1cc(-n2c(Cl)cc3c(=O)n(CC4(O)CCN(C(=O)[C@]5(C)C[C@H]5C(F)(F)F)CC4)cnc32)ccc1[C@H]1CO[C@H](C)CN1 (single isomer, unassigned)", "assayedTarget": "USP7 (Homo sapiens (Human))", "qualitativeLabel": "y"}

----------
molecular target: USP7 (Homo sapiens (Human), UniProt Q93009); assay: USP7 fluorescence polarisation (FP) assay with ubiquitin-Lys-TAMRA substrate; assay type: biochemical; settings: biochemical inhibition; unit not given in Table 3b (Table 1 and key of Table 3a use μM); read-out: USP7 IC50 activity (Table 3b)
Sequence (Q93009 whole entry): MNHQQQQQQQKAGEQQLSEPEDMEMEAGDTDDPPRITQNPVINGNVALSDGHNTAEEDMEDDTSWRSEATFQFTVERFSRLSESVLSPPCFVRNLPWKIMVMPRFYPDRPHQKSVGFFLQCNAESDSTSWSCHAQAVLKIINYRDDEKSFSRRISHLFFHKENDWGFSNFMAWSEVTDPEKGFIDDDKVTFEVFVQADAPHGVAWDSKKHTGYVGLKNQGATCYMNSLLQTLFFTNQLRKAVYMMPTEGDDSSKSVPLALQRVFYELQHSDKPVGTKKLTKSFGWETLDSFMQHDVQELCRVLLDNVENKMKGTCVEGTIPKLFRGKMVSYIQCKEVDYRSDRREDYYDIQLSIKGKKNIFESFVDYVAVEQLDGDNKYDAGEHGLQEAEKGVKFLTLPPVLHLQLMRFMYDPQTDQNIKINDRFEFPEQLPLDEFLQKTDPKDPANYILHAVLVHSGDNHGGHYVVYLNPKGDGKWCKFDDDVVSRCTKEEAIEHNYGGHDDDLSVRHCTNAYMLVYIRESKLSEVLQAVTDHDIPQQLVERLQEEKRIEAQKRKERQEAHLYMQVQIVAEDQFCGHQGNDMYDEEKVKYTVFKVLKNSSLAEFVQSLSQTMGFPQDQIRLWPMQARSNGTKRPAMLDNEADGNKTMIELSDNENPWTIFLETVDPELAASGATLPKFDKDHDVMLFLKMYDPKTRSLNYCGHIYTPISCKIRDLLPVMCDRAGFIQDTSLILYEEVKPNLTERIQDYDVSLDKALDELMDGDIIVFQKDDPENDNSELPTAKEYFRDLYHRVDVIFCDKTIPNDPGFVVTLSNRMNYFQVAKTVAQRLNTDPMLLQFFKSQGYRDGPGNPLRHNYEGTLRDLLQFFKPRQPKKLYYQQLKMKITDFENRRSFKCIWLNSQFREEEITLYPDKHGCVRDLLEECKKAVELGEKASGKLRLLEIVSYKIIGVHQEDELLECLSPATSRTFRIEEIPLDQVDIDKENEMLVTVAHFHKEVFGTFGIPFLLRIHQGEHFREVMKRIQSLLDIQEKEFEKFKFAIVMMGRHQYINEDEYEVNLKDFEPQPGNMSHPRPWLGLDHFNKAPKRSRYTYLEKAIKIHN
readoutType: IC50

{"compound": "C[C@H]1CN[C@H](c2ccc(-n3c(Cl)cc4c(=O)n(CC5(O)CCN(C(=O)[C@@]6(C)C[C@@H]6C(F)(F)F)CC5)cnc43)cc2)CO1 (single isomer, unassigned)", "readoutType": "IC50", "result": "0.226 µM"}
{"compound": "C[C@@H]1COC[C@H](c2ccc(-n3c(Cl)cc4c(=O)n(CC5(O)CCN(C(=O)c6ccc(Cl)cc6)CC5)cnc43)cc2)N1 (single isomer, unassigned)", "readoutType": "IC50", "result": "0.194 µM"}
{"compound": "C[C@H]1CN[C@H](c2ccc(-n3c(Cl)cc4c(=O)n(CC5(O)CCN(C(=O)c6ccccc6Cl)CC5)cnc43)cc2)CO1", "readoutType": "IC50", "result": "0.144 µM"}
{"compound": "C[C@H]1CN[C@H](c2ccc(-n3c(Cl)cc4c(=O)n(CC5(O)CCN(C(=O)[C@@]6(C)C[C@@H]6C(F)F)CC5)cnc43)cc2)CO1", "readoutType": "IC50", "result": "0.145 µM"}
{"compound": "O=C(C[C@H](c1ccccc1)C(F)F)N1CCC(O)(Cn2cnc3c(cc(Cl)n3-c3ccc([C@H]4COCCN4)cc3)c2=O)CC1 (single isomer, unassigned)", "readoutType": "IC50", "result": "0.006 µM"}
{"compound": "O=C(C[C@H](c1ccccc1)C(F)F)N1CCC(O)(Cn2cnc3c(cc(Cl)n3-c3ccc([C@@H]4COCCN4)cc3)c2=O)CC1 (single isomer, unassigned)", "readoutType": "IC50", "result": "0.006 µM"}
{"compound": "CC[C@H]1CN[C@H](c2ccc(-n3c(Cl)cc4c(=O)n(CC5(O)CCN(C(=O)c6ccc(Cl)cc6)CC5)cnc43)cc2)CO1", "readoutType": "IC50", "result": "0.162 µM"}
{"compound": "C[C@H]1CN[C@H](c2ccc(-n3c(Cl)cc4c(=O)n(CC5(O)CCN(C(=O)c6ccc(C(F)(F)F)cc6)CC5)cnc43)cc2)CO1", "readoutType": "IC50", "result": "0.156 µM"}
{"compound": "C[C@H]1COC[C@@H](c2ccc(-n3c(Cl)cc4c(=O)n(CC5(O)CCN(C(=O)c6ccc(Cl)cc6)CC5)cnc43)cc2)N1 (single isomer, unassigned)", "readoutType": "IC50", "result": "0.161 µM"}
{"compound": "C[C@@H]1CN[C@@H](c2ccc(-n3c(Cl)cc4c(=O)n(CC5(O)CCN(C(=O)c6ccc(F)cc6)CC5)cnc43)cc2)CO1", "readoutType": "IC50", "result": "0.147 µM"}
{"compound": "CC1(C(=O)N2CCC(O)(Cn3cnc4c(cc(Cl)n4-c4ccc([C@H]5COCCN5)cc4)c3=O)CC2)CC1 (single isomer, unassigned)", "readoutType": "IC50", "result": "0.022 µM"}
